- Test target: Gonadotropin-releasing hormone receptor (Homo sapiens, UniProt P30968)
- Sequence (P30968 whole entry): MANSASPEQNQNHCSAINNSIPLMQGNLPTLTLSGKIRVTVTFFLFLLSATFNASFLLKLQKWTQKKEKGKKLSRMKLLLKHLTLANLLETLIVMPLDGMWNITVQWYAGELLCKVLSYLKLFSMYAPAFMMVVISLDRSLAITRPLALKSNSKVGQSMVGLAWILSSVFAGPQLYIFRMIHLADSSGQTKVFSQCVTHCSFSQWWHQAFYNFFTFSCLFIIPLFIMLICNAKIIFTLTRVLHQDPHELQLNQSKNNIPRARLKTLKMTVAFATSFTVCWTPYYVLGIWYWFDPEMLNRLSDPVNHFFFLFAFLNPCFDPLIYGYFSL
- Assay method text: Displacement of [125I]His5,D-Tyr6]GnRH from human cloned GnRH receptor transfected in COS7 cells
- Type: cell-based, COS-7
Please note: Ki exactly at 200 nM is Not satisfied. Only values below 200 nM get Satisfied.

• COc1cccc(-n2c(=O)c3c(n(Cc4c(F)cccc4F)c2=O)CN(Cc2ccccc2)CC3)c1 = Not satisfied
• CCc1ccc(CN2CCc3c(c(=O)n(CCN(C)CCc4ccccn4)c(=O)n3Cc3c(F)cccc3F)C2)cc1 = Satisfied
• CN(CCc1ccccn1)CCn1c(=O)c2c(n(Cc3c(F)cccc3F)c1=O)CCN(Cc1ccc(C(C)(C)C)cc1)C2 = Not satisfied
• COc1ccc(CN2CCc3c(c(=O)n(CCN(C)CCc4ccccn4)c(=O)n3Cc3c(F)cccc3F)C2)cc1 = Satisfied
• Cc1ccccc1CN1CCc2c(c(=O)n(CCN(C)CCc3ccccn3)c(=O)n2Cc2c(F)cccc2F)C1 = Satisfied
• Cc1ccc(CN2CCc3c(c(=O)n(CCN(C)Cc4ccccn4)c(=O)n3Cc3c(F)cccc3F)C2)c(C)c1 = Satisfied
• CN(CCc1ccccn1)CCn1c(=O)c2c(n(Cc3c(F)cccc3F)c1=O)CCN(Cc1ccc(-n3ccnc3)cc1)C2 = Not satisfied
• Cc1c(CN2CCc3c(c(=O)n(CCN(C)CCc4ccccn4)c(=O)n3Cc3c(F)cccc3C(F)(F)F)C2)sc2ccccc12 = Satisfied

###

- Test target: UniProtKB P30968
- Assay method text: Displacement of [125I]His5,D-Tyr6]GnRH from human cloned GnRH receptor transfected in COS7 cells
Recorded endpoint: Ki (nM)

* CN(CCc1ccccn1)CCn1c(=O)c2c(n(Cc3c(F)cccc3F)c1=O)CCN(Cc1ccc(C(F)(F)F)cc1)C2 | 30
* Cc1ccc(CN2CCc3c(c(=O)n(CC4CCCN(C5CCCC5)C4)c(=O)n3Cc3c(F)cccc3F)C2)c(C)c1 (centres undefined) | 2580
* CN(CCc1ccccn1)CCn1c(=O)c2c(n(Cc3c(F)cccc3F)c1=O)CCN(Cc1cccc(Cl)c1)C2 | 850
* Cc1ccc(CN2CCc3c(c(=O)n(CCN(C)CCc4ccccn4)c(=O)n3Cc3c(F)cccc3F)C2)cc1 | 35

###

Catalogue of pKi readings, one per entry.
- Test target: Gonadotropin-releasing hormone receptor (Homo sapiens, UniProt P30968)
- Assay method text: Displacement of [125I]His5,D-Tyr6]GnRH from human cloned GnRH receptor transfected in COS7 cells
pKi: −log10 of the molar value.
Recorded endpoint: pKi

• CN(CCc1ccccn1)CCn1c(=O)c2c(n(Cc3c(F)cccc3F)c1=O)CCN(Cc1ccc(S(C)(=O)=O)cc1)C2 = 6.09
• COc1cccc(-n2c(=O)c3c(n(Cc4c(F)cccc4F)c2=O)CNCC3)c1 = 6.01
• COc1cccc(-n2c(=O)c3c(n(Cc4c(F)cccc4F)c2=O)CN(Cc2ccccc2OC)CC3)c1 = 6.01
• CN(CCc1ccccn1)CCn1c(=O)c2c(n(Cc3c(F)cccc3F)c1=O)CCN(Cc1ccccc1)C2 = 6.00
